system: SW 982 tumor spheroid viability; experiment: Anticancer human tumor SW 982 cell line growth inhibition; conditions: second compound 0.3 µM; first compound 3 µM; stronger effect = lower value; spheroids with HUVEC and MSC;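 also: spheroids exposed to compound for 7 days before readout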
METRIC: viability, T/C (%)
One number for each entry, in %.

Solved entries:
CNCc1ccc(-c2cc(-c3nc(-c4ccc(S(=O)(=O)C(C)C)cc4)cnc3N)on2)cc1 + CC[C@@]1(O)C(=O)OCc2c1cc1n(c2=O)Cc2cc3c(CN(C)C)c(O)ccc3nc2-1 :: 6.34
O=C(c1cc(Cc2n[nH]c(=O)c3ccccc23)ccc1F)N1CCN(C(=O)C2CC2)CC1 + CC[C@@]1(O)C(=O)OCc2c1cc1n(c2=O)Cc2cc3c(CN(C)C)c(O)ccc3nc2-1 :: 39.6
Cn1ncnc1[C@H]1c2n[nH]c(=O)c3cc(F)cc(c23)N[C@@H]1c1ccc(F)cc1 + CC[C@@]1(O)C(=O)OCc2c1cc1n(c2=O)Cc2cc3c(CN(C)C)c(O)ccc3nc2-1 :: 25.1

QUERY: Find viability, T/C (SW 982 tumor spheroid viability) for the entry Cc1sc2c(c1C)C(c1ccc(Cl)cc1)=NC(CC(=O)Nc1ccc(O)cc1)c1nnc(C)n1-2 (centres undefined) + CC[C@@]1(O)C(=O)OCc2c1cc1n(c2=O)Cc2cc3c(CN(C)C)c(O)ccc3nc2-1
RESULT: 22.9

Source listed as PubChem BioAssay AID1845216.
